So I've got a bunch of molecules here, and I need their mass density values.
Test: mn = molality of the nth substance listed, in mol/kg
Settings: 303.15 K; 101.3 kPa; Liquid; m2 = 0
Numbers only here, please. The scale is kg/m3.

Exercise: // mass density lookup, key: CN(C)C=O [dimethylformamide] + [Ni+2].[O-][Cl+3]([O-])([O-])[O-].[O-][Cl+3]([O-])([O-])[O-]
Key: 939.114

Exercise: // mass density lookup, key: CN(C)C=O [dimethylformamide] + [Mn+2].[O-][Cl+3]([O-])([O-])[O-].[O-][Cl+3]([O-])([O-])[O-]
Key: 939.017

Exercise: // mass density lookup, key: CN(C)C=O [dimethylformamide] + [Cu+2].[O-][Cl+3]([O-])([O-])[O-].[O-][Cl+3]([O-])([O-])[O-]
Key: 939.017

Exercise: // mass density lookup, key: CN(C)C=O [dimethylformamide] + [O-][Cl+3]([O-])([O-])[O-].[O-][Cl+3]([O-])([O-])[O-].[Zn+2]
Key: 939.114

Exercise: // mass density lookup, key: CN(C)C=O [dimethylformamide] + [Co+2].[O-][Cl+3]([O-])([O-])[O-].[O-][Cl+3]([O-])([O-])[O-]
Key: 939.114
